- assayed.target: T1, human GIPR (human, UniProt P48546 22-466)
- T1 sequence (looked up): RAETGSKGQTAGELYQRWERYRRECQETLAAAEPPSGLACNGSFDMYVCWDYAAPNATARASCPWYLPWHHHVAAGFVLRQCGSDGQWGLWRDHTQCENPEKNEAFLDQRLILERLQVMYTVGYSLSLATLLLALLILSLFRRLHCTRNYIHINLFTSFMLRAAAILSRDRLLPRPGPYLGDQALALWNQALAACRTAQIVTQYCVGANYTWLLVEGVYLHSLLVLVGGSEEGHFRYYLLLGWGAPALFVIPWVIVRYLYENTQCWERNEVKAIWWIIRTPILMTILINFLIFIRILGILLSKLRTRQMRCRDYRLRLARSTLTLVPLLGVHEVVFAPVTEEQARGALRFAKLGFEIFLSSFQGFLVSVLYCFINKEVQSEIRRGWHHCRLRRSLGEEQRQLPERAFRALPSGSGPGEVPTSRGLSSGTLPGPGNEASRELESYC
- assay.explanation: cell-based or functional assay
Square brackets hold non-standard residues; d marks the D form. Side chains are listed from the residue outwards. Phe(2-F) = N[C@@H](Cc1ccccc1F)C(=O)O; αMeF = C[C@](N)(Cc1ccccc1)C(=O)O; Iva = CC[C@](C)(N)C(=O)O; Oda = not defined here; Aib = CC(C)(N)C(=O)O
Measured Agonist activity (EC50), Cre-luc reporter assay, listed per entry.
Please respond with the number in nM and leave the unit unwritten.

### Prompt Could you tell me which Agonist activity (EC50), Cre-luc reporter assay is on file for H-Y[Aib]EGT[αMeF]TSDK([Gly-Gly-Gly-Gly-Oda])[Aib]I[Aib]LDKQRQ[Iva]EFVRHLLNK[Aib]TRQRY-NH2 (reading uncertain; also: printed as H-Tyr-Aib-Glu-Gly-Thr-αMePhe-Thr-Ser-Asp-Lys(-Gly-Gly-Gly-Gly-Oda)-Aib-Ile-Aib-Leu-Asp-Lys-Gln-Arg-Gln-Iva-Glu-Phe-Val-Arg-His-Leu-Leu-Asn-Lys-Aib-Thr-Arg-Gln-Arg-Tyr-NH2) ?
### Response 0.22

Then there is this binder:
### Prompt Could you tell me which Agonist activity (EC50), Cre-luc reporter assay is on file for H-Y[Aib]EGT[αMeF]TSDK([Gly-Gly-Gly-Gly-Pal])[Aib]I[Aib]LDKQAQ[Iva]EFVRHLLNK[Aib]TRQR[Phe(2-F)]-NH2 ?
### Response 0.035
